molecular target: UniProt:Q99572; assay: Human P2X7 functional assay (Ca2+ influx, Fluo-4, FDSS); settings: antagonistic activity with respect to the human P2X7 receptor; BzATP final concentration 80 microM
measurementKind: IC50

Consider the following illustrative entries.
{"compound": "O=C1CCC(C(=O)NCc2c(Cl)cc(Cl)cc2CO)c2cccnc21 (stereo not drawn)", "measurementKind": "IC50", "observedValue": "< 0.05 µM"}
{"compound": "N#CC[C@]1(O)CC[C@@](F)(C(=O)NCc2c(Cl)cc(Cl)cc2CO)c2cccnc21", "measurementKind": "IC50", "observedValue": "< 0.05 µM"}
{"compound": "O=C(NCc1ccccc1C(F)(F)F)[C@]1(F)CC[C@H](O)c2ncccc21", "measurementKind": "IC50", "observedValue": "0.05 to 0.1 µM"}
{"compound": "O=C(NCc1c(Cl)cccc1C(F)(F)F)[C@]1(F)CC[C@H](O)c2ncccc21", "measurementKind": "IC50", "observedValue": "< 0.05 µM"}
{"compound": "C[C@]1(O)CC[C@@](F)(C(=O)NCc2c(Cl)cc(F)cc2CO)c2cccnc21", "measurementKind": "IC50", "observedValue": "< 0.05 µM"}

Field request: IC50 | item: CSC[C@]1(O)CC[C@@](F)(C(=O)NCc2ccc(Cl)cc2Cl)c2cccnc21
< 0.05 µM

Please do the same for C[S+]([O-])C[C@]1(O)CC[C@@](F)(C(=O)NCc2ccc(F)cc2Cl)c2cccnc21 (stereo partly drawn) as well.
0.05 to 0.1 µM

Please do the same for O=C(NCc1c(Cl)cc(Cl)cc1C(F)F)[C@@]1(F)CC[C@H](O)c2ncccc21 as well.
0.101 to 0.3 µM

Please do the same for O=C1CCC(F)(C(=O)NCc2cccc(C(F)(F)F)c2Cl)c2cccnc21 (stereo not drawn) as well.
< 0.05 µM

Please do the same for Cc1cc(Cl)cc(Cl)c1CNC(=O)C1CCC(=O)c2ncccc21 (stereo not drawn) as well.
< 0.05 µM

Please do the same for O=C1CCC(C(=O)NCC2CCCCCC2)c2cccnc21 (stereo not drawn) as well.
1 to 3 µM

----------
molecular target: human P2X7 (Homo sapiens (Human)); experiment: Human P2X7 functional assay (Ca2+ influx, Fluo-4, FDSS); details: antagonistic activity with respect to the human P2X7 receptor; BzATP final concentration 80 microM
Sequence (Q99572 whole entry): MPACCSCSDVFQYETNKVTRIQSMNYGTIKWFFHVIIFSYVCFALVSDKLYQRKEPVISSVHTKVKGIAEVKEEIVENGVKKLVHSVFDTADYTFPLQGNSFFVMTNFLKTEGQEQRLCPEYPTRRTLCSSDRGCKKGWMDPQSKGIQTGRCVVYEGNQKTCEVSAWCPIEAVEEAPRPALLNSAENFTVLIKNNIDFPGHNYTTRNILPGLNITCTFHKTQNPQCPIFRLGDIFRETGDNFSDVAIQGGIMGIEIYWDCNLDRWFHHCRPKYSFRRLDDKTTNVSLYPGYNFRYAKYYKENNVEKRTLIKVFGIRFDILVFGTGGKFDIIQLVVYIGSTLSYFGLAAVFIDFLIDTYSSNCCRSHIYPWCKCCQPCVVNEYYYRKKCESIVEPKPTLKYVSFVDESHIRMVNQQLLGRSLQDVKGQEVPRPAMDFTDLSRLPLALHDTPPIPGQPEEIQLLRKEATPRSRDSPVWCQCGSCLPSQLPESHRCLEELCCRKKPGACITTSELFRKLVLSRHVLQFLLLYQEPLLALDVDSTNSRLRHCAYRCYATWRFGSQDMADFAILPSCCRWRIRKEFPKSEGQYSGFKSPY
A collection of compounds and their measured IC50

Consider the following illustrative entries.
{"compound": "Cc1cc(Cl)cc(Cl)c1CNC(=O)C1CCC(O)(CN)c2ncccc21 (stereo not drawn) [Example 43]", "observedValue": "< 0.05 µM"}
{"compound": "C[C@]1(O)CC[C@@](F)(C(=O)NCc2c(Cl)cc(Cl)cc2CO)c2cccnc21 [Example 261]", "observedValue": "< 0.05 µM"}
{"compound": "CO[C@H]1CC[C@@](F)(C(=O)NCc2ccc(F)cc2F)c2cccnc21 [Example 342]", "observedValue": "0.05 to 0.1 µM"}
{"compound": "O=C(NCc1c(Cl)cc(C(F)(F)F)cc1Cl)[C@]1(F)CC[C@H](O)c2ncccc21 [Example 148]", "observedValue": "< 0.05 µM"}

Let us examine a further case.
Field request: IC50 | item: O=C(NCc1cccc(C(F)(F)F)c1Cl)[C@@]1(F)CC[C@@H](O)c2ncccc21 [Example 128]
< 0.05 µM

This collection of values is drawn from patent US11077100B2.
